Tested on: Solute carrier family 22 member 12 (Homo sapiens, UniProt Q96S37)
Sequence (Q96S37 whole entry): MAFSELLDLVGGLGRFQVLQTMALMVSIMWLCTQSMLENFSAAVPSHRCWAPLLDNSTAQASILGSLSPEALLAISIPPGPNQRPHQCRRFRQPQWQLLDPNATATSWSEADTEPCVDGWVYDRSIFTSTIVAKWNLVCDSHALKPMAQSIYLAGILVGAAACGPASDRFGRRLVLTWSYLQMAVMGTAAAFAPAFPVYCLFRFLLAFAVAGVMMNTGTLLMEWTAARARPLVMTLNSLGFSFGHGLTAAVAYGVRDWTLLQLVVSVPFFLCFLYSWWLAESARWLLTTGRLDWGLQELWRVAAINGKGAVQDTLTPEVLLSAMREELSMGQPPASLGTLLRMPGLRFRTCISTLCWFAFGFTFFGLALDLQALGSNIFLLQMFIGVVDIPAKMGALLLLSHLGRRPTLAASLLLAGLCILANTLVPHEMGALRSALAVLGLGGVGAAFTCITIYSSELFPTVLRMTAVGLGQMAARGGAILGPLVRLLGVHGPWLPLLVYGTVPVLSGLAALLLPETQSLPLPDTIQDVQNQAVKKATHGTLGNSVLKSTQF
Method summary: Inhibition of human URAT1 stably expressed in HEK293T cells
Format: cell-based
Endpoint name: pIC50
Friendly reminder that pIC50 comes from taking -log10 of the concentration in mol/L.

Indicate its recorded pIC50; the compound in question is N#Cc1cc(-n2cnc(C(=O)O)c2)ccc1N1CCCCCC1
4.97

###

Tested on: Solute carrier family 2, facilitated glucose transporter member 9 (Homo sapiens)
Sequence (Q9NRM0 whole entry): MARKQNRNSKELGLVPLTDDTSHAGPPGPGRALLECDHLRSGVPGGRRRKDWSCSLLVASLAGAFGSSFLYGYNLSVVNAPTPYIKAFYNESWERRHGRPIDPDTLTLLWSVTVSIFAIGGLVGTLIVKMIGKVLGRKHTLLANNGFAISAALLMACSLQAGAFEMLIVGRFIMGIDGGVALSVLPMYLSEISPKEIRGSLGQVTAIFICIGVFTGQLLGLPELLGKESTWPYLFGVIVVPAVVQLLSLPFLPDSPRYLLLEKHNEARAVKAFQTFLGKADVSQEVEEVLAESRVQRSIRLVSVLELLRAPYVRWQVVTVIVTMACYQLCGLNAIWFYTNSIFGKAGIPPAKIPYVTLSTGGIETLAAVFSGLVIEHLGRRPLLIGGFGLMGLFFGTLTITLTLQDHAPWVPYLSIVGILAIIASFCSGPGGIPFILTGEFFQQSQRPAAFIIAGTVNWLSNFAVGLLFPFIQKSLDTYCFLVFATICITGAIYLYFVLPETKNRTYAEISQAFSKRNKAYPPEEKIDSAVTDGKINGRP
Endpoint name: IC50 (nM)
Form entry: value (nM) — number only.

Indicate its recorded IC50; the molecule in question is CC(C)=CCc1c(O)ccc2c1O[C@H](c1ccc(O)cc1)CC2=O
1120

###

Tested on: Xanthine dehydrogenase/oxidase (Homo sapiens)
Sequence (P47989 whole entry): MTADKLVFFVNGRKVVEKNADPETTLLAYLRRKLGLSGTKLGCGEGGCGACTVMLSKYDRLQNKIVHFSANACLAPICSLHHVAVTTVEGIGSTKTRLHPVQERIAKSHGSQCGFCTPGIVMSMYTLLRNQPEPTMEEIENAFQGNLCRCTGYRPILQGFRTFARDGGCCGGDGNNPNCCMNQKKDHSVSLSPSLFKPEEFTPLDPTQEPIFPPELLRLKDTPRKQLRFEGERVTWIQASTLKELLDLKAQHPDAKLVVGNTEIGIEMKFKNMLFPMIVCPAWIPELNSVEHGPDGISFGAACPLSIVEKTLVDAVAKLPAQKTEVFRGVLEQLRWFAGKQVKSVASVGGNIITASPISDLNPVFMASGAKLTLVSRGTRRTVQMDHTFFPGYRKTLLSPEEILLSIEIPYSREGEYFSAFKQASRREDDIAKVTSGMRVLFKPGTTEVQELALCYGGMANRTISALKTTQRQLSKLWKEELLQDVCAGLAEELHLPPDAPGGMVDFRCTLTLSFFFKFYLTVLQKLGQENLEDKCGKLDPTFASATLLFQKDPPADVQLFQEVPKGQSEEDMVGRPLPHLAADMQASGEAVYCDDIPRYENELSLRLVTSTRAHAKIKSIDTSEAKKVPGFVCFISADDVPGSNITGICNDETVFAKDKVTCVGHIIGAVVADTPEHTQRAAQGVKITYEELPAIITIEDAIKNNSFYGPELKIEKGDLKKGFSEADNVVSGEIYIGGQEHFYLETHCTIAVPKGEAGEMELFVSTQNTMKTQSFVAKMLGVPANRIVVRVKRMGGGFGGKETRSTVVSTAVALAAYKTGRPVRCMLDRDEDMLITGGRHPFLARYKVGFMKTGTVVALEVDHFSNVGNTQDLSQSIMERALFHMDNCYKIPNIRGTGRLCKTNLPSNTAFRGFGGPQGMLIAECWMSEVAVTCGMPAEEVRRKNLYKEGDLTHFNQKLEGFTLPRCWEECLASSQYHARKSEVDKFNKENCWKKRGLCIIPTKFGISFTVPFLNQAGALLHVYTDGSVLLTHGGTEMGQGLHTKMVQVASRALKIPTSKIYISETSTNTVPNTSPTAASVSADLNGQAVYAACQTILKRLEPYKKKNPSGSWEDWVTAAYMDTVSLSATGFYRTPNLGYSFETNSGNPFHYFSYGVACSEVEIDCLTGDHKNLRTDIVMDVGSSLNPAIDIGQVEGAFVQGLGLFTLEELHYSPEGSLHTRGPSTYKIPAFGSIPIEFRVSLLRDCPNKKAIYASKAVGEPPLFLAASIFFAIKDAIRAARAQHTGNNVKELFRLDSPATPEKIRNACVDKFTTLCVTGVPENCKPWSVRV
Method summary: Inhibition of XOR (unknown origin)
Endpoint name: pIC50
Friendly reminder that pIC50 comes from taking -log10 of the concentration in mol/L.

Compound	Endpoint name	Observed result
N#Cc1cc(-c2n[nH]c(-c3ccncc3)n2)ccn1 [TOPIROXOSTAT]	pIC50	7.82

Continue with the next compound.
Indicate its recorded pIC50; the compound in question is O=C(/C=C/c1ccc(O)c2oc(-c3ccc(O)c(O)c3)cc12)O[C@H](Cc1ccc(O)c(O)c1)C(=O)O
5.01

###

Tested on: UniProtKB Q96S37
Method summary: Inhibition of human URAT1 expressed in HEK293T cells by assessed as 14C-uric acid uptake preincubated for 5 mins followed by 14C-uric acid addition and measured after 10 mins by liquid scintillation counting method
Format: cell-based
Endpoint name: pIC50
Friendly reminder that pIC50 comes from taking -log10 of the concentration in mol/L.

Report its pIC50 with UniProtKB Q96S37 as the test system: O=C(O)C1(Sc2ccccc2N2CCOc3ccc(Br)cc32)CCC1
5.77
